Every entry's value here was drawn from patent US7462600B2.

// reported MIC H. influenzae 1218 per item
# System: Haemophilus influenzae 1218
# Assay Procedure: MIC, microtiter broth dilution (NCCLS M100-S14), H. influenzae 1218 (susceptible)
# Format: cell-based
# Experimental Setup: Haemophilus influenzae 1218
Outcome Measure: MIC H. influenzae 1218 (µg/mL)

1) CCC1OC(=O)C(C)C(=O)C(C)C(OC2OC(C)CC(N(C)C)C2O)C(C)(OC)CC(C)C(=O)C(C)C2N(C3CN(C(=O)NCc4ccc5ncccc5c4)C3)C(=O)OC12C (centres unmarked)	2
2) CCC1OC(=O)C(C)C(=O)C(C)C(OC2OC(C)CC(N(C)C)C2O)C(C)(OC)CC(C)C(=O)C(C)C2N(C3CN(Cc4c(OC)cnc5ccccc45)C3)C(=O)OC12C (centres unmarked)	1
3) CCC1OC(=O)C(C)C(=O)C(C)C(OC2OC(C)CC(N(C)C)C2O)C(C)(OC)CC(C)C(=O)C(C)C2N(C3CN(Cc4c(C)cnc5ccccc45)C3)C(=O)OC12C (centres unmarked)	2
4) CCC1OC(=O)C(C)C(=O)C(C)C(OC2OC(C)CC(N(C)C)C2O)C(C)(OC)CC(C)C(=O)C(C)C2N(C3CN(Cc4c(C)ccc5ccccc45)C3)C(=O)OC12C (centres unmarked)	2
5) CCC1OC(=O)C(C)C(=O)C(C)C(OC2OC(C)CC(N(C)C)C2O)C(C)(OC)CC(C)C(=O)C(C)C2N(C3CN(S(=O)(=O)c4c(C)noc4C)C3)C(=O)OC12C (centres unmarked)	2

###

In this section, each of the compounds is paired with its reported MIC S. pneumo. 1095.
# System: Streptococcus pneumoniae 1095
# Type: cell-based
# Experimental Setup: S. pneumoniae 1095 (ermB); microtiter broth dilution
Outcome Measure: MIC S. pneumo. 1095

1) CCC1OC(=O)C(C)C(=O)C(C)C(OC2OC(C)CC(N(C)C)C2O)C(C)(OC)CC(C)C(=O)C(C)C2N(CC3CCCN3C(=O)c3ccc4cccnc4c3)C(=O)OC12C.O=CO (stereo not shown)	<0.06 µg/mL
2) CCC1OC(=O)C(C)C(=O)C(C)C(OC2OC(C)CC(N(C)C)C2O)C(C)(OC)CC(C)C(=O)C(C)C2N(CC3CCCN3C(=O)c3ccnc4ccccc34)C(=O)OC12C (stereo not shown)	1 µg/mL
3) CCC1OC(=O)C(C)C(=O)C(C)C(OC2OC(C)CC(N(C)C)C2O)C(C)(OC)CC(C)C(=O)C(C)C2N(CC3CCN(Cc4cccc5nccnc45)CC3)C(=O)OC12C (stereo not shown)	>64.00 µg/mL
4) CC[C@H]1OC(=O)[C@H](C)C(=O)[C@H](C)[C@@H](O[C@@H]2O[C@H](C)C[C@H](N(C)C)[C@H]2O)[C@](C)(OC)C[C@@H](C)C(=O)[C@H](C)[C@H]2N(CC3(O)CN(C(=O)c4cc5ncccc5[nH]4)C3)C(=O)O[C@]12C.O=CO	<0.06 µg/mL
5) CC[C@H]1OC(=O)[C@H](C)C(=O)[C@H](C)[C@@H](O[C@@H]2O[C@H](C)C[C@H](N(C)C)[C@H]2O)[C@](C)(OC)C[C@@H](C)C(=O)[C@H](C)[C@H]2N(CC3(O)CN(S(=O)(=O)c4c(C)n[nH]c4C)C3)C(=O)O[C@]12C	>64.00 µg/mL
6) CCC1OC(=O)C(C)C(=O)C(C)C(OC2OC(C)CC(N(C)C)C2O)C(C)(OC)CC(C)C(=O)C(C)C2N(CC3CCCN3C(=O)c3ccc(-n4cccn4)nc3)C(=O)OC12C.O=CO (stereo not shown)	0.5 µg/mL
7) CC[C@H]1OC(=O)[C@H](C)C(=O)[C@H](C)[C@@H](O[C@@H]2O[C@H](C)C[C@H](N(C)C)[C@H]2O)[C@](C)(OC)C[C@@H](C)C(=O)[C@H](C)[C@H]2N(CC3(C)CN(C(=O)c4cccc5cccnc45)C3)C(=O)O[C@]12C.O=CO	>64.00 µg/mL
8) CCC1OC(=O)C(C)C(=O)C(C)C(OC2OC(C)CC(N(C)C)C2O)C(C)(OC)CC(C)C(=O)C(C)C2N(CC3CCN(Cc4ccno4)CC3)C(=O)OC12C (stereo not shown)	>64.00 µg/mL
9) CCC1OC(=O)C(C)C(=O)C(C)C(OC2OC(C)CC(N(C)C)C2O)C(C)(OC)CC(C)C(=O)C(C)C2N(CC3CCCN3C(=O)c3cnc4ccccc4c3)C(=O)OC12C (stereo not shown) [12.05]	1 µg/mL
10) CC[C@H]1OC(=O)[C@H](C)C(=O)[C@H](C)[C@@H](O[C@@H]2O[C@H](C)C[C@H](N(C)C)[C@H]2O)[C@](C)(OC)C[C@@H](C)C(=O)[C@H](C)[C@H]2N(CC3(O)CN(C(=O)c4cc5ccccn5n4)C3)C(=O)O[C@]12C.O=CO	0.25 µg/mL
11) CCC1OC(=O)C(C)C(=O)C(C)C(OC2OC(C)CC(N(C)C)C2O)C(C)(OC)CC(C)C(=O)C(C)C2N(CC3CCN(Cc4ccc(OC)nc4)C3)C(=O)OC12C (stereo not shown)	<0.06 µg/mL
12) CCC1OC(=O)C(C)C(=O)C(C)C(OC2OC(C)CC(N(C)C)C2O)C(C)(OC)CC(C)C(=O)C(C)C2N(CC3CCCN3C(=O)c3cnn4ccccc34)C(=O)OC12C (stereo not shown)	<0.06 µg/mL
13) CCC1OC(=O)C(C)C(=O)C(C)C(OC2OC(C)CC(N(C)C)C2O)C(C)(OC)CC(C)C(=O)C(C)C2N(CC3CCN(C(=O)c4cccc5ncsc45)C3)C(=O)OC12C (stereo not shown)	2 µg/mL
14) CCC1OC(=O)C(C)C(=O)C(C)C(OC2OC(C)CC(N(C)C)C2O)C(C)(OC)CC(C)C(=O)C(C)C2N(CC3CCCN3C(=O)c3nc4cccnc4[nH]3)C(=O)OC12C (stereo not shown)	<0.06 µg/mL
15) CCC1OC(=O)C(C)C(=O)C(C)C(OC2OC(C)CC(N(C)C)C2O)C(C)(OC)CC(C)C(=O)C(C)C2N(CC3CCCN3C(=O)c3cccc4cccnc34)C(=O)OC12C (stereo not shown)	0.5 µg/mL
16) CC[C@H]1OC(=O)[C@H](C)C(=O)[C@H](C)[C@@H](O[C@@H]2O[C@H](C)C[C@H](N(C)C)[C@H]2O)[C@](C)(OC)C[C@@H](C)C(=O)[C@H](C)[C@H]2N(C3CCN(Cc4cccc5[nH]cnc45)C3)C(=O)O[C@]12C.O=CO (stereo partly shown) [Example 8.01, (1H-benzo[d]imidazo-4-yl)methyl]	>64.00 µg/mL
17) CCC1OC(=O)C(C)(F)C(=O)C(C)C(OC2OC(C)CC(N(C)C)C2O)C(C)(OC)CC(C)C(=O)C(C)C2N(CC3CCCN3C(=O)c3nccc4ccccc34)C(=O)OC12C (stereo not shown)	<0.06 µg/mL
18) CCC1OC(=O)C(C)C(=O)C(C)C(OC2OC(C)CC(N(C)C)C2O)C(C)(OC)CC(C)C(=O)C(C)C2N(CC3CCCN3C(=O)c3cc4ncccn4n3)C(=O)OC12C (stereo not shown)	<0.06 µg/mL
19) CCC1OC(=O)C(C)C(=O)C(C)C(OC2OC(C)CC(N(C)C)C2O)C(C)(OC)CC(C)C(=O)C(C)C2N(CC3CCN(C(=O)c4cnc5ccccc5c4)C3)C(=O)OC12C (stereo not shown) [13.10]	>64.00 µg/mL
